Test system: Huh-luc/neo-ET cells
assay summary: Cell cytotoxic test (MTT) on Huh-luc/neo-ET cells
Type: cell-based
details: concentration for 15% cell kill, two-day culture
Protocol: Cell Cytotoxic Test on Huh-luc/noe-ET Cells Huh-luc/neo-ET cells with a concentration of 2.5×10^4 cells/100 μl/well were seeded into a 96 well culture plate (Corning Incorporation COSTAR, 3599) and placed into a cell incubator for culturing. […] After a two-day culture, the medium was removed and each well containing cells was washed by 100 μl of 1×PBS (1 mM KH2PO4, 10 mM Na2HPO4, 137 mM NaCl, 2.7 mM KCl) twice. Precipitates were recorded and PBS was removed. […]
Form field: CC15 (one value per entry).

# count of solved cases: 2
C[C@@H]1O[C@@H](O[C@@H]2[C@H](O)[C@@H](O)[C@H](O[C@H]3CC[C@@]4(C)C(CC[C@]5(C)C4C=C[C@]46OC[C@@]7(CCC(C)(C)CC74)[C@@H](O)C[C@]65C)C3(C)C)O[C@@H]2CO[C@@H]2O[C@H](CO)[C@@H](O)[C@H](O)[C@H]2O)[C@H](O)[C@H](O)[C@H]1O (stereo partly drawn) [A04, Saikosaponin C]	>100 µM
CC(=O)OC1C(OC(C)=O)[C@]2(CO)C(OC(C)=O)C[C@]3(C)C(=CCC4[C@@]5(C)CC[C@H](OC6OC(C(C)=O)C(O)C(OC7OC(CO)C(O)C(O)C7O)C6O)C(C)(C)C5CC[C@]43C)C2CC1(C)C (stereo partly drawn) [A07]	>100 µM

Turning now to a further compound:
// sample COc1ccc(/C=C/C(=O)OC2C(C)OC(OC(=O)C34CCC(C)(C)CC3C3=CCC5[C@@]6(C)CC[C@H](OC7OC(C(=O)O)C(O)C(O)C7OC7OC(CO)C(O)C(O)C7O)[C@@](C)(C=O)C6CC[C@@]5(C)[C@]3(C)C[C@H]4O)C(OC3OC(C)C(O)C(O)C3OC3OCC(O)C(O)C3O)C2O)cc1 (stereo partly drawn) [A12] , its CC15 was >100 µM
